# DETAILS: 303.15 K; 100 kPa; Liquid; Frequency=3 MHz; Linear variable-path acoustic interferometer
ENDPOINT NAME: speed of sound (m/s)

| COMPOUND | UNITS | OBSERVED RESULT |
| --- | --- | --- |
| CC#N | m/s | 1263.9 |
| C=C(C)C(=O)OCC [ethyl 2-methylpropenoate] | m/s | 1157.6 |
| C=C(C)C(=O)OCCCC [butyl 2-methyl-2-propenoate] | m/s | 1202.4 |
